Data credit: ChEMBL document CHEMBL1781960

- measured_target: Sodium/glucose cotransporter 2 (Homo sapiens)
- Sequence (P31639 whole entry): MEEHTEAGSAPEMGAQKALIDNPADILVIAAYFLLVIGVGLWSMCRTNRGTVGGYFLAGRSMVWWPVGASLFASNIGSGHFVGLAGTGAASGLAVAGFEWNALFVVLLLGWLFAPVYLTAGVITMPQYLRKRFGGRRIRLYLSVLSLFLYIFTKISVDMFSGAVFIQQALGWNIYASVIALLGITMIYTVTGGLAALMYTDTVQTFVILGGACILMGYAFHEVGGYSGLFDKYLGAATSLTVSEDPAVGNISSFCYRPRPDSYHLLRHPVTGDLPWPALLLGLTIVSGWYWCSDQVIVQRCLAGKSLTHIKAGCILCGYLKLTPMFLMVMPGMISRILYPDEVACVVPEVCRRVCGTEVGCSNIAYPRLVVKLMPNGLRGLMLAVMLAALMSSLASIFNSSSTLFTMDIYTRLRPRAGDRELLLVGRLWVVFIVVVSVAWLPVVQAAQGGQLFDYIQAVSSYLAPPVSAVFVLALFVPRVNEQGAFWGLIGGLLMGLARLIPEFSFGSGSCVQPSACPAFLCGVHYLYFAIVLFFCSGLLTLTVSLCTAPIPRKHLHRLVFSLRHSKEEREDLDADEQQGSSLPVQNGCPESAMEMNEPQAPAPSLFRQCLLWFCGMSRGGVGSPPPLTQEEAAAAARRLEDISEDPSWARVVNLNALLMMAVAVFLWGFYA
- method_description: Inhibition of human SGLT2 expressed in CHO-K1 cells assessed as reduction in [14C]-alpha-methylglucopyranoside uptake after 2 hrs by liquid scintillation counting
- Assay type: cell-based
Quick reference for EC50 among some molecules

N=c1n(CCO)c2ccccc2n1Cc1ccccc1 = > 50 µM
CC(C)(C)C(O)Cn1c(=N)n(CCN2CCCCC2)c2ccccc21 (stereo not drawn) = > 50 µM

Consider the additional molecule presented here.
*Q* Please look up its EC50: `N=c1n(CC(=O)O)c2ccccc2n1Cc1ccc(Cl)cc1`
*A* > 50 µM
